Cited source for all entries: patent US20180186742A1

For each entry below, report its pest or weed control at 100 ppm value.
Tested on: Zymoseptoria tritici
Experimental details: Leaf blotch of wheat (SEPTTR), disease control on wheat seedlings
Assay type: in vivo
Experimental setup: 24 h, high volume application at 100 ppm, 1 Day Protectant, read-out: SEPTTR disease control, 1DP, HV activity

These solved cases illustrate the format of a correct answer.
                                   compound         target_system                         endpoint  test_result
0  CCC(C)[C@H](c1ccc(C)cc1C)[C@H](C)OC(=O)[C@H](C)NC(=O)c1nccc(OC)c1O (some centres unmarked)  Zymoseptoria tritici  pest or weed control at 100 ppm        < 80%
1  COc1ccc([C@H](C(C)C)[C@H](C)OC(=O)[C@H](C)NC(=O)c2nccc(OC)c2O)cc1  Zymoseptoria tritici  pest or weed control at 100 ppm        < 80%
2  COc1ccnc(C(=O)N[C@@H](CC(C)C)C(=O)O[C@@H](C)[C@H](c2ccc(F)cc2C)C(C)C)c1O  Zymoseptoria tritici  pest or weed control at 100 ppm        < 80%
3  COc1ccnc(C(=S)N[C@@H](C)C(=O)OC(C)[C@H](c2ccccc2)C2CCCC2)c1O (some centres unmarked)  Zymoseptoria tritici  pest or weed control at 100 ppm        > 80%

For the next question, use this compound.
q: Give the measured pest or weed control at 100 ppm for COc1ccnc(C(=O)N[C@@H](C)C(=O)O[C@@H](C)[C@@H](c2ccc(C)cc2F)C(C)C)c1O
a: < 80%

---

Test system: Zymoseptoria tritici
Experimental details: Leaf blotch of wheat (SEPTTR), disease control on wheat seedlings
Assay type: in vivo
Experimental setup: 72 h, high volume application at 100 ppm, 3 Day Curative, read-out: SEPTTR disease control, 3DC, HV activity
Endpoint: pest or weed control at 100 ppm

These solved cases illustrate the format of a correct answer.
>>> print(df.to_string())
                                   molecule  test_result
0  COc1ccnc(C(=O)N[C@@H](C)C(=O)O[C@@H](C)[C@H](c2ccc(F)cc2C)C2CCCC2)c1O        < 80%
1  COc1ccnc(C(=O)N[C@@H](C)C(=O)O[C@@H](C)[C@H](c2ccccc2C)C(C)C)c1O        > 80%
2  COc1ccnc(C(=O)N[C@@H](C)C(=O)OC(C)[C@H](c2ccccc2)C2CCCC2)c1O (stereo partly drawn)        > 80%
3  COc1ccnc(C(=O)N[C@@H](C)C(=O)O[C@@H](C)[C@H](c2cccc(F)c2C)C(C)C)c1O        < 80%
4  COc1cc(F)ccc1[C@@H](C1CCC1)[C@H](C)OC(=O)[C@H](C)NC(=O)c1nccc(OC)c1O        < 80%

For the next question, use this molecule.
q: Give the measured pest or weed control at 100 ppm for COc1ccnc(C(=O)N[C@@H](C)C(=O)O[C@@H](C)[C@H](c2ccc(Cl)cc2Cl)C(C)C)c1O
a: < 80%

---

Tested on: Puccinia triticina
Experimental details: Wheat brown rust (PUCCRT), disease control on wheat seedlings
Assay type: in vivo
Experimental setup: 72 h, high volume application at 100 ppm, 3 Day Curative, read-out: PUCCRT disease control, 3DC, HV activity
Endpoint: pest or weed control at 100 ppm

>>> df
                                   molecule                         endpoint  test_result
0  COc1cc(F)ccc1[C@@H](C1CCCCC1)[C@H](C)OC(=O)[C@H](C)NC(=O)c1nccc(OC)c1O [Compound 139]  pest or weed control at 100 ppm        < 80%
1  COc1ccnc(C(=O)N[C@@H](C)C(=O)O[C@@H](C)[C@H](c2cccc(F)c2C)C(C)C)c1O [Compound 322]  pest or weed control at 100 ppm        > 80%
2  CCC(CC)[C@@H](c1ccc(F)cc1OC)[C@H](C)OC(=O)[C@H](C)NC(=O)c1nccc(OC)c1O [Compound 145]  pest or weed control at 100 ppm        > 80%
3  COc1cc(F)ccc1[C@@H](C1CCC1)[C@H](C)OC(=O)[C@H](C)NC(=O)c1nccc(OC)c1O [Compound 142]  pest or weed control at 100 ppm        > 80%
4  COc1ccnc(C(=O)N[C@@H](CC(C)C)C(=O)O[C@@H](C)[C@H](c2ccc(F)cc2C)C(C)C)c1O [Compound 320]  pest or weed control at 100 ppm        < 80%

Hi team, please reply with pest or weed control at 100 ppm for each item in this list.
1. CCC(CC)[C@@H](c1ccc(F)cc1C)[C@H](C)OC(=O)[C@H](C)NC(=O)c1nccc(OC)c1O [Compound 125]
2. COc1ccnc(C(=O)N[C@@H](C)C(=O)O[C@@H](C)[C@H](c2cccc(C)c2C)C(C)C)c1O [Compound 326]
3. COc1ccnc(C(=O)N[C@@H](C)C(=O)O[C@@H](C)[C@H](c2ccc(F)cc2C)C2CCC2)c1O [Compound 127]
4. COc1ccnc(C(=O)N[C@@H](C)C(=O)O[C@@H](C)[C@H](c2ccc(F)cc2C)C2CCCCC2)c1O [Compound 123]

a:
["< 80%", "> 80%", "> 80%", "> 80%"]

---

For each entry below, report its pest or weed control at 100 ppm value.
System: Zymoseptoria tritici
Experimental details: Leaf blotch of wheat (SEPTTR), disease control on wheat seedlings
Assay type: in vivo
Experimental setup: 72 h, high volume application at 100 ppm, 3 Day Curative, read-out: SEPTTR disease control, 3DC, HV activity
Method: Technical grades of materials were dissolved in acetone, which were then mixed with nine volumes of water containing 110 ppm Triton X-100. The fungicide solutions were applied onto wheat seedlings using an automated booth sprayer to run-off. […] All fungicides were evaluated using the aforementioned method for their activity vs. all target diseases, unless stated otherwise. […] Percent disease control was calculated using the ratio of disease severity on treated plants relative to untreated plants.

These solved cases illustrate the format of a correct answer.
In [3]: df
Out[3]:
                               input_smiles                         endpoint  test_result
0  COc1cc(F)ccc1[C@@H](C1CCCCC1)[C@H](C)OC(=O)[C@H](C)NC(=O)c1nccc(OC)c1O  pest or weed control at 100 ppm         < 0%
1  COc1ccnc(C(=O)N[C@@H](C)C(=O)O[C@@H](C)[C@@H](c2ccc(C)cc2C)C2CCC2)c1O  pest or weed control at 100 ppm        > 80%
2  COc1ccnc(C(=O)N[C@H](C(=O)O[C@@H](C)[C@H](c2ccc(F)cc2C)C(C)C)C(C)C)c1O  pest or weed control at 100 ppm        < 80%

Hi team, please reply with pest or weed control at 100 ppm for each item in this list.
1. COc1ccnc(C(=O)N[C@@H](C)C(=O)O[C@@H](C)[C@H](c2ccccc2OC(C)C)C(C)C)c1O
2. COc1ccnc(C(=O)N[C@@H](C)C(=O)O[C@@H](C)[C@@H](c2ccc(C)cc2C)C(C)C)c1O
3. COc1cc(F)ccc1[C@H](C(C)C)[C@H](C)OC(=O)[C@H](C)NC(=O)c1nccc(OC)c1O

a:
< 0%
< 80%
< 80%

---

Tested on: Alternaria solani
Experimental details: Tomato early blight (ALTESO), disease control on tomato plants
Assay type: in vivo
Experimental setup: 1DP test at 100 ppm, read-out: ALTESO disease control rating
For each entry below, report its pest or weed control at 100 ppm value.

These solved cases illustrate the format of a correct answer.
>>> df
                               input_smiles                         endpoint  test_result
0  COc1ccnc(C(=O)N[C@@H](C)C(=O)O[C@@H](C)[C@H](c2ccc(F)cc2C)C(C)C)c1OC(C)=O  pest or weed control at 100 ppm        > 80%
1  CCC(CC)[C@@H](c1ccc(F)cc1C)[C@H](C)OC(=O)[C@H](C)NC(=O)c1nccc(OC)c1OC(C)=O  pest or weed control at 100 ppm        < 80%
2  COc1ccnc(C(=O)N[C@@H](C)C(=O)O[C@@H](C)[C@H](c2ccc(F)cc2C)C(C)C)c1OC(=O)OC(C)C  pest or weed control at 100 ppm        < 80%
3  COc1ccnc(C(=O)N[C@@H](C)C(=O)O[C@@H](C)[C@H](c2ccc(F)cc2C)C(C)C)c1OC(=O)C1CCCC1  pest or weed control at 100 ppm        < 80%
4  COc1ccnc(C(=S)N[C@@H](C)C(=O)O[C@@H](C)[C@H](c2ccc(F)cc2C)C(C)C)c1OC(C)=O  pest or weed control at 100 ppm        < 80%
5  COc1ccnc(C(=O)N[C@@H](C)C(=O)O[C@@H](C)[C@H](c2ccc(F)cc2C)C(C)C)c1OC(=O)C(C)(C)C  pest or weed control at 100 ppm        < 80%

q: Give the measured pest or weed control at 100 ppm for COc1ccnc(C(=O)N[C@@H](C)C(=O)O[C@@H](C)[C@H](c2ccc(F)cc2C)C(C)C)c1OC(=O)CC(C)C
a: > 80%
